B1: PKD2L1 (parent)
chain: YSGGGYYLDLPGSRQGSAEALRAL

- Variants of: B1
- runDescription: protein stability index of a GFP-peptide fusion (GPS, HEK-293T) (PSI 1-6); higher = more stable;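 further: lentivirally expressed fusions sorted by FACS into six bins by GFP to DsRed ratio, PSI derived from sequencing read proportions per bin multiplied by bin number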
- particulars: c terminus: a fixed tail appended
Everything with protein stability index lower than 2 is False; everything else, including exactly 2, is True.

Say whether YSGGGYYLDLPGQRQGSAEALRAL [S13Q] shows protein stability index of 2 or more.
True

And then YSGGGYYLDLPGSRQGSAEALRAV [L24V] , what is it?
True

Cool, now YSGGGYYLDLPGSHQGSAEALRAL [R14H]
False

Another variant to look at: YSGGGYYQDLPGSRQGSAEALRAL [L8Q]
True

Entry YTGGGYYLDLPGSRQGSAEALRAL [S2T] please
True

Could you do the same for WSGGGYYLDLPGSRQGSAEALRAL [Y1W] , please?
True

Another: YSGGGYYLDLPGSRQGSAFALRAL [E19F]
True

Now this one: YDGGGYYLDLPGSRQGSAEALRAL [S2D]
True

Thanks! And YSGGGYYLDLPGSRQGSAAALRAL [E19A] ?
False

Moving on to YSCGGYYLDLPGSRQGSAEALRAL [G3C]
True

Do the same for YSGGGYYLDLPGPRQGSAEALRAL [S13P] please
False

Then YSGGGYYLDLPGSRQGSAEALRWL [A23W] ?
True

Similarly, YSGGGYYLDLPVSRQGSAEALRAL [G12V] ?
True

What about YSGGGYYLDLPTSRQGSAEALRAL [G12T] ?
False

Same read-out for YSGGNYYLDLPGSRQGSAEALRAL [G5N] ?
False

Now this one: YSGGGYYLDLPGSRQGAAEALRAL [S17A]
False

Entry YSGGGYYLDLPGSRQGSMEALRAL [A18M] please
False

And what about the variant YSGGGYYLDLDGSRQGSAEALRAL [P11D] ?
False

What would you report for YSGGRYYLDLPGSRQGSAEALRAL [G5R] ?
True

Same thing, different variant: YSGGGYYLDLPGSRQGSAEALRAH [L24H]
True

Subsequent entry: YSGGGYYLDLPGSRQESAEALRAL [G16E]
False

Entry YSGGGYYLDLPFSRQGSAEALRAL [G12F] please
False

Next variant: YSGGGYYLDLCGSRQGSAEALRAL [P11C]
False

Would you kindly repeat that for YSGGGYYLDLPGSQQGSAEALRAL [R14Q] ?
False

Same read-out for YSGGGYYLDLPGSRQGSAEILRAL [A20I] ?
False

Moving on to the next variant: YSGGGYYLDLPGSRLGSAEALRAL [Q15L]
False

Also need YSGGGYYLDLPGTRQGSAEALRAL [S13T] , thanks.
False

For YSGGGYYGDLPGSRQGSAEALRAL [L8G] then?
False

Further, for YSGGGYYLDLPGSRQGSAEALRAR [L24R] ?
True

Same again, this time with YSIGGYYLDLPGSRQGSAEALRAL [G3I]
True

Repeat with YSGGGYYLDLPGSRQGSAEALRVL [A23V]
True

Here is the next variant: YSGGGYYLDLPGSWQGSAEALRAL [R14W]
True

Same lookup for YSGGGYYLDLPGSRQGSAEALRKL [A23K] , please.
False

Then YSGGGYYLDLPGSRQPSAEALRAL [G16P] ?
False

And what about the variant YSGGGYGLDLPGSRQGSAEALRAL [Y7G] ?
True

What about YSVGGYYLDLPGSRQGSAEALRAL [G3V] ?
True

Try the variant YSGGGYYLDLPGSRQGSAEALTAL [R22T]
False

Do the same for YSGGGYYLDLPGSRQGSAEALRAI [L24I] please
False

Field entry: YSGGGYYWDLPGSRQGSAEALRAL [L8W]
True

Likewise for YSGGGYYLDLPLSRQGSAEALRAL [G12L] ?
True

Moving on to YSGGGYYNDLPGSRQGSAEALRAL [L8N]
False

What do you get for YSGGGPYLDLPGSRQGSAEALRAL [Y6P] ?
True

Please answer likewise for ISGGGYYLDLPGSRQGSAEALRAL [Y1I]
True

Again, but for YSNGGYYLDLPGSRQGSAEALRAL [G3N]
False

Record: YSGGGYYLDLPGSRQGSAEATRAL [L21T]
False
